Where do the numbers come from? From patent US8772323B2.

Molecular target: human GPR119 (Homo sapiens (Human))
Sequence (Q8TDV5 whole entry): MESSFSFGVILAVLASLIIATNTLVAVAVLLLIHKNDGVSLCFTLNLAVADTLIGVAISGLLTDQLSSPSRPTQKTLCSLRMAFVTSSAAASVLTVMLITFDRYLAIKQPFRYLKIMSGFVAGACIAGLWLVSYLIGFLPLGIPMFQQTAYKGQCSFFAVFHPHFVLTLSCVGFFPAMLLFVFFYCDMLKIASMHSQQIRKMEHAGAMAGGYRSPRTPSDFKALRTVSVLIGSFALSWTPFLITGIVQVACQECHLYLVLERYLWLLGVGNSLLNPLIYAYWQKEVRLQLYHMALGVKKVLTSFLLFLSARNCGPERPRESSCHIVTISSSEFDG
Assay: AlphaScreen cAMP assay in Min-6/hGPR119 cells (GPR119 activation, intracellular cAMP)
Type: cell-based
Details: MIN6 cells stably transfected with human GPR119; 45 minutes' incubation at RT; AlphaScreen cAMP Assay Kit
As shown below, each of these molecules has a reported EC50 value.
API: value field is a number in nM; no unit string.

Query: Write down the reported EC50 of `CC[C@@H]1CC(=O)NN=C1c1ccc2nc(-c3ccc(OCCN(C(C)C)C(C)C)cc3)oc2c1` , test system: human GPR119 (Homo sapiens (Human)).
Reply: 22

Continuing:
Query: // lookup EC50 | system=human GPR119 (Homo sapiens (Human)) | key= CCC1CC(=O)NN=C1c1ccc2nc(-c3ccc(OC4CCN(C(=O)OC(C)(C)C)CC4)cc3)oc2c1 (stereo not drawn)
Reply: 60

Query: Please state recorded EC50 (tested on human GPR119 (Homo sapiens (Human))) of CCC1CC(=O)NN=C1c1ccc2nc(-c3cccc(OCCN4CCC(C#N)CC4)c3)oc2c1 (stereo not drawn)
Reply: 735

Query: Field: EC50 (human GPR119 (Homo sapiens (Human))). Entry: CCC1CC(=O)NN=C1c1ccc2nc(-c3ccc(OCC(=O)N(C)C)cc3)oc2c1 (stereo not drawn)
Reply: 1520

Query: Give EC50 (human GPR119 (Homo sapiens (Human))) of the following molecule: C=CCC1CC(c2ccc3nc(-c4ccccc4)oc3c2)=NNC1=O (stereo not drawn)
Reply: 892

Query: // lookup EC50 | system=human GPR119 (Homo sapiens (Human)) | key= CCC1CC(=O)NN=C1c1ccc2nc(-c3cccc(OCCN4CC(C)OC(C)C4)c3)oc2c1 (stereo not drawn)
Reply: 639

Query: Short answer please: EC50, human GPR119 (Homo sapiens (Human)), entry CCC1CC(=O)NN=C1c1ccc2nc(-c3cc(C)cs3)oc2c1 (stereo not drawn)
Reply: 225

Query: Form field - read-out: EC50; system: human GPR119 (Homo sapiens (Human)); submitted item: CC1CC(=O)NN=C1c1ccc2nc(-c3ccc(Cl)nc3Cl)oc2c1 (stereo not drawn)
Reply: 1340

Query: # value lookup — system human GPR119 (Homo sapiens (Human)), readout EC50, item CCC1OC(=O)NN=C1c1ccc2nc(-c3ccccc3)oc2c1 (stereo not drawn) [Example 78]
Reply: 61

Query: Identify the measured EC50 of `O=C1CCC(c2ccc3nc(N4CCCCC4)oc3c2)=NN1` for human GPR119 (Homo sapiens (Human)).
Reply: 3740

Query: Find the measured EC50: item CCC[C@H]1C(=O)NN=C(c2ccc3nc(-c4ccsc4)oc3c2)[C@@H]1C (relative stereo) , target or system human GPR119 (Homo sapiens (Human)).
Reply: 173

Query: I'm curious: which EC50 was measured for CCC1CC(=O)NN=C1c1ccc2nc(-c3ccc(OC[C@H]4CCCN4C(C)C)cc3)oc2c1 (stereo partly drawn) tested on human GPR119 (Homo sapiens (Human))?
Reply: 191

Query: Kindly state the measured EC50 obtained for CCC1CC(=O)NN=C1c1ccc2nc(-c3cccc(OCCN4CCCCC4)c3)oc2c1 (stereo not drawn) with human GPR119 (Homo sapiens (Human)).
Reply: 1560

Query: // lookup EC50 | system=human GPR119 (Homo sapiens (Human)) | key= `C[C@@H]1C(=O)NN=C(c2ccc3nc(-c4ccccc4)oc3c2)[C@H]1C`
Reply: 166
